Here, each record is paired with measured NF-kB reporter data.
- System: RAW-Dual (murine macrophage reporter line)
- assayText: NF-kB reporter (SEAP) activity fold change vs agonist alone; higher = enhanced NF-kB activity
- assayConditions: modulator concentration 10 µM; agonist: MPLA […]
propertyMeasured: NF-kB reporter

* COc1ccc(NC(=O)CN(c2ccc(F)cc2)S(C)(=O)=O)c(OC)c1 | 1.05
* Cc1cccc(Sc2nccn3c(=O)n(CC(=O)N4CCN(c5ccccc5)CC4)nc23)c1 | 0.664
* O=C(COc1ccccc1)N1CCCC1Cn1nccn1 (configuration not stated) | 0.923
* Ic1ccc(N=Cc2ccc(C=Nc3ccc(I)cc3)cc2)cc1 | 0.997
* CN1CCC2(CC1)NC(=O)N(CC(=O)N1CCc3ccccc31)C2=O | 0.942
* Cc1ccc(-c2cc(C(F)(F)F)nn2-c2ccc(S(N)(=O)=O)cc2)cc1 | 0.59
* CCc1ccc2oc(-c3ccc(NC(=O)c4ccc(C)c([N+](=O)[O-])c4)cc3)nc2c1 | 0.931
* CC(Nc1ccc(N)cc1)=C1C(=O)c2ccccc2C1=O | 1.01
* O=C(Nc1ccc([N+](=O)[O-])cc1Cl)c1ccc([N+](=O)[O-])cc1 | 0.937
* COc1c(OC)c2occc2c2oc(=O)ccc12 | 0.941
* O=C(CCCN1C(=O)c2cccc3cccc(c23)C1=O)NCCO | 0.963
* CC(=O)NO | 0.953
* COc1ccc(-c2coc3cc(O)cc(O)c3c2=O)cc1 | 1.73
* Cc1ccc(Sc2c(C)nn(-c3ccccc3)c2OC(=O)C(C)(C)C)cc1 | 0.928
* Cc1ccc(-n2ncc3c(=O)n(CC=Cc4ccccc4)cnc32)cc1C | 0.96
* O=Cc1c[nH]c2ccccc12 | 1.4
* CCN1CCN(Cc2ccc(Nc3ncc(F)c(-c4cc(F)c5nc(C)n(C(C)C)c5c4)n3)nc2)CC1.CS(=O)(=O)O | 3.04
* Cc1ccccc1CC(CC(=O)O)C(=O)O (configuration not stated) | 0.93
* CCCCOc1ccc(S(=O)(=O)NCCCn2ccnc2)cc1 | 1.21
* CS(=O)(=O)O.Cc1c(O)cccc1C(=O)N[C@@H](CSc1ccccc1)[C@H](O)CN1C[C@H]2CCCC[C@H]2C[C@H]1C(=O)NC(C)(C)C | 1.29
* CCN(CC)CCN1C(=O)C(O)=C(C(=O)c2ccc(Br)cc2)C1c1ccccc1F (configuration not stated) | 0.985
* O=C(Nc1cccnc1)c1ccc(OC2CCOCC2)nc1 | 1
